assay: acute toxicity investigation in mice
experimental-context: mouse, in vivo, po, read-out: LD50 (mg/kg) p.o.
Where a name gives a salt, the structure may show the parent alone.
value-kind: LD50 (mg/kg)
Your answer should be a plain number; it is taken to be in mg/kg.

Qu. I'd like to know its LD50. The compound in question is CCc1conc1NC(=N)NC(=N)N
Ans. 500

***
Qu. I'd like to know its LD50. The compound in question is CNC(=N)NC(=N)Nc1cc(C)on1
Ans. 900

Qu. I'd like to know its LD50. The compound in question is Cc1cc(NC(=N)NC(=N)N(C)C)no1
Ans. 800

Qu. I'd like to know its LD50. The compound in question is Cc1cc(NC(=N)NC(=N)N)no1 [Example 1, hydrochloride]
Ans. 700

Qu. I'd like to know its LD50. The compound in question is CCCCNC(=N)NC(=N)Nc1cc(C)on1
Ans. 250

Qu. I'd like to know its LD50. The compound in question is Cc1noc(NC(=N)NC(=N)N(C)C)c1C
Ans. 700

----------
assay: acute toxicity investigation in mice
experimental-context: mouse, in vivo, iv, read-out: LD50 (mg/kg) i.v.
Where a name gives a salt, the structure may show the parent alone.
Just a reminder that ties go to class 0: only LD50 strictly below 70 mg/kg counts as class 1.

Would you please look over these solved cases?
Qu. Threshold test, LD50 < 70 mg/kg: Cc1cc(NC(=N)NC(=N)N2CCOCC2)no1 [Example 20]
Ans. class 0

Qu. Threshold test, LD50 < 70 mg/kg: Cc1conc1NC(=N)NC(=N)N(C)C [Example 11]
Ans. class 1

***
Qu. Threshold test, LD50 < 70 mg/kg: Cc1cc(NC(=N)NC(=N)N(C)C)no1 [Example 3]
Ans. class 0

Qu. Threshold test, LD50 < 70 mg/kg: N=C(N)NC(=N)Nc1ccon1 [Example 9]
Ans. class 0

Qu. Threshold test, LD50 < 70 mg/kg: CCc1cc(NC(=N)NC(=N)N)no1 [Example 4]
Ans. class 1

Qu. Threshold test, LD50 < 70 mg/kg: Cc1cc(NC(=N)NC(=N)N2CCN(C)CC2)no1 [Example 19]
Ans. class 0

Qu. Threshold test, LD50 < 70 mg/kg: Cc1onc(N(C)C(=N)NC(=N)N)c1C [Example 10]
Ans. class 0

Qu. Threshold test, LD50 < 70 mg/kg: CCCCNC(=N)NC(=N)Nc1cc(C)on1 [Example 13]
Ans. class 1

Qu. Threshold test, LD50 < 70 mg/kg: Cc1cc(NC(=N)NC(=N)N)no1 [Example 1, hydrochloride]
Ans. class 0

----------
System: uptake of ^3 H noradrenalin by the synaptosomes of a rat hypothalamus homogenate
assay: inhibition of the uptake of ^3 H noradrenalin by the synaptosomes of a rat hypothalamus homogenate
Assay type: biochemical
experimental-context: 5 × 10^-4 M ultimate concentration; with respect to the control test
Each item that follows carries a reported inhibition % of the uptake of ^3 H noradrenalin.
Your answer should be a plain number; it is taken to be in %.

Qu. I'd like to know its inhibition % of the uptake of ^3 H noradrenalin. The molecule in question is Cc1cc(NC(=N)NC(=N)N2CCN(C)CC2)no1
Ans. 53.8

Qu. I'd like to know its inhibition % of the uptake of ^3 H noradrenalin. The molecule in question is Cc1onc(N(C)C(=N)NC(=N)N)c1C
Ans. 19.5

Qu. I'd like to know its inhibition % of the uptake of ^3 H noradrenalin. The molecule in question is CCCCc1cc(NC(=N)NC(=N)N)no1
Ans. 69.5

***
Qu. I'd like to know its inhibition % of the uptake of ^3 H noradrenalin. The molecule in question is N=C(N)NC(=N)Nc1ccon1
Ans. 68.6

Qu. I'd like to know its inhibition % of the uptake of ^3 H noradrenalin. The molecule in question is CCCCNC(=N)NC(=N)Nc1cc(C)on1
Ans. 63.1

Qu. I'd like to know its inhibition % of the uptake of ^3 H noradrenalin. The molecule in question is Cc1conc1NC(=N)NC(=N)N(C)C
Ans. 60.1

Qu. I'd like to know its inhibition % of the uptake of ^3 H noradrenalin. The molecule in question is CCN(C(=N)NC(=N)N)c1cc(C)on1
Ans. 37.9

----------
System: uptake of ^3 H noradrenalin by the synaptosomes of a rat hypothalamus homogenate
assay: inhibition of the uptake of ^3 H noradrenalin by the synaptosomes of a rat hypothalamus homogenate
Type: biochemical
experimental-context: 5 × 10^-4 M ultimate concentration; with respect to the control test
Outcome label depends on inhibition % of the uptake of ^3 H noradrenalin relative to 50%: at/above gives fulfilled, below gives not fulfilled.

Qu. Quick check, inhibition % of the uptake of ^3 H noradrenalin >= 50%? Cc1cc(N(C)C(=N)NC(=N)N)no1 [Example 7]
Ans. not fulfilled

Qu. Quick check, inhibition % of the uptake of ^3 H noradrenalin >= 50%? CNC(=N)NC(=N)Nc1cc(C)on1 [Example 2]
Ans. fulfilled

Qu. Quick check, inhibition % of the uptake of ^3 H noradrenalin >= 50%? Cc1cc(NC(=N)NC(=N)N2CCOCC2)no1 [Example 20]
Ans. not fulfilled

***
Qu. Quick check, inhibition % of the uptake of ^3 H noradrenalin >= 50%? Cc1noc(NC(=N)NC(=N)N(C)C)c1C [Example 22]
Ans. not fulfilled

Qu. Quick check, inhibition % of the uptake of ^3 H noradrenalin >= 50%? CCc1cc(NC(=N)NC(=N)N)no1 [Example 4]
Ans. fulfilled

Qu. Quick check, inhibition % of the uptake of ^3 H noradrenalin >= 50%? Cc1cc(NC(=N)NC(=N)N(C)C)no1 [Example 3]
Ans. not fulfilled

----------
assay: acute toxicity investigation in mice
experimental-context: mouse, in vivo, po, read-out: LD50 (mg/kg) p.o.
Each item that follows carries a reported LD50.

# annotated cases, reported LD50 shown
Qu. I'd like to know its LD50. The compound in question is CCN(C(=N)NC(=N)N)c1cc(C)on1
Ans. > 750 mg/kg

Qu. I'd like to know its LD50. The compound in question is N=C(N)NC(=N)Nc1ccon1
Ans. > 1000 mg/kg

Qu. I'd like to know its LD50. The compound in question is Cc1conc1NC(=N)NC(=N)N
Ans. 300 mg/kg

Qu. I'd like to know its LD50. The compound in question is Cc1cc(NC(=N)NC(=N)N2CCOCC2)no1
Ans. 750 mg/kg

Qu. I'd like to know its LD50. The compound in question is CCc1cc(NC(=N)NC(=N)N)no1
Ans. 500 mg/kg

***
Qu. I'd like to know its LD50. The compound in question is Cc1conc1NC(=N)NC(=N)N(C)C
Ans. 300 mg/kg

Qu. I'd like to know its LD50. The compound in question is Cc1onc(N(C)C(=N)NC(=N)N)c1C
Ans. > 500 mg/kg

Qu. I'd like to know its LD50. The compound in question is CCCCc1cc(NC(=N)NC(=N)N)no1
Ans. 600 mg/kg

Qu. I'd like to know its LD50. The compound in question is Cc1cc(NC(=N)NC(=N)N2CCN(C)CC2)no1
Ans. 2000 mg/kg

Qu. I'd like to know its LD50. The compound in question is CC(C)c1cc(NC(=N)NC(=N)N)no1
Ans. 200 mg/kg
